experiment: Solubility in water; format: physicochemical
Listed next: entries and their corresponding solubility.
VALUE_KIND: solubility (µg/mL)

SMILES_REPRESENTATION: CC(C)(CC(=O)NC1CC1)CC(=O)N[C@H]1C2CC3CC1C[C@](C(N)=O)(C3)C2
VALUE_KIND: solubility
DISPLAY_UNIT: µg/mL
EXPERIMENTAL_RESULT: 491
//
SMILES_REPRESENTATION: CC(C)(CC(=O)NC1CC1)CC(=O)N[C@H]1C2CC3CC1C[C@](O)(C3)C2
VALUE_KIND: solubility
DISPLAY_UNIT: µg/mL
EXPERIMENTAL_RESULT: 597

###

experiment: Bioavailability in rat at 0.2 mg/kg, iv and 0.5 mg/kg, po; type: ADME, organism-based; settings: in vivo
Listed next: entries and their corresponding bioavailability.

SMILES_REPRESENTATION: CC(C)(CC(=O)NC1CC1)CC(=O)N[C@H]1C2CC3CC1C[C@](O)(C3)C2
bioavailability [%]: 30
--
SMILES_REPRESENTATION: CC(C)(CC(=O)NC1CC1)CC(=O)N[C@H]1C2CC3CC1C[C@](C(N)=O)(C3)C2
bioavailability [%]: 10

###

biological target: 11-beta-hydroxysteroid dehydrogenase 1 (Homo sapiens); assay: Inhibition of human recombinant 11beta-HSD1 expressed in Escherichia coli assessed as cortisol level after 150 mins by HTRF assay
Sequence (P28845 whole entry): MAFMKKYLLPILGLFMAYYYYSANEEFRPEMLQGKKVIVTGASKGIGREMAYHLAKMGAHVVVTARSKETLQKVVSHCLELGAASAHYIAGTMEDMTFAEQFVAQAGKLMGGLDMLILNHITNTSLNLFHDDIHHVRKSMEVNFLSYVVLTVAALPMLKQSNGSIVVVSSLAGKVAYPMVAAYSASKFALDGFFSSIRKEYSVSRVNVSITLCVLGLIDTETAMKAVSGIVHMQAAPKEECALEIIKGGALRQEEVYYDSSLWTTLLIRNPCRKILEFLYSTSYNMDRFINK
Listed next: entries and their corresponding IC50.

MOLECULE: CC(C)(CC(=O)NC1CC1)CC(=O)N[C@H]1C2CC3CC1C[C@](C(N)=O)(C3)C2
COMPARISON_SIGN: =
IC50 [nM]: 8
--
MOLECULE: CC(C)(CC(=O)NC1CC1)CC(=O)N[C@H]1C2CC3CC1C[C@@](O)(C3)C2
COMPARISON_SIGN: =
IC50 [nM]: 550
--
MOLECULE: CC(C)(CC(=O)NC1CC1)CC(=O)N[C@H]1C2CC3CC1C[C@](O)(C3)C2
COMPARISON_SIGN: =
IC50 [nM]: 8
--
MOLECULE: CC(C)(CC(=O)NC1CC1)CC(=O)N[C@H]1C2CC3CC1C[C@](C(=O)O)(C3)C2
COMPARISON_SIGN: >
IC50 [nM]: 1000
--
MOLECULE: O=C(CCCC(=O)NC1C2CC3CC(C2)CC1C3)NC1CC1 (stereo not given)
COMPARISON_SIGN: >
IC50 [nM]: 1000

###

test: Drug absorption in rat assessed as recovery of unchanged drug in feces at 0.2 mg/kg, iv after 24 hrs; type: ADME, organism-based; design: dose 0.2 mg/kg, route intravenous; details: faeces, read-out: Drug uptake
Listed next: entries and their corresponding dose excreted at 24 h.
VALUE_KIND: dose excreted at 24 h (%)

SMILES_REPRESENTATION: CC(C)(CC(=O)NC1CC1)CC(=O)N[C@H]1C2CC3CC1C[C@](C(N)=O)(C3)C2
EXPERIMENTAL_RESULT: 24
--
SMILES_REPRESENTATION: CC(C)(CC(=O)NC1CC1)CC(=O)N[C@H]1C2CC3CC1C[C@](O)(C3)C2
EXPERIMENTAL_RESULT: 20

###

experiment: Volume of distribution at steady state in rat at 0.2 mg/kg, iv and 0.5 mg/kg, po; format: ADME, organism-based; conditions: in vivo, read-out: Vdss
Listed next: entries and their corresponding Vd.
VALUE_KIND: Vd (L/kg)

SMILES_REPRESENTATION: CC(C)(CC(=O)NC1CC1)CC(=O)N[C@H]1C2CC3CC1C[C@](C(N)=O)(C3)C2
EXPERIMENTAL_RESULT: 3.1

SMILES_REPRESENTATION: CC(C)(CC(=O)NC1CC1)CC(=O)N[C@H]1C2CC3CC1C[C@](O)(C3)C2
EXPERIMENTAL_RESULT: 2.7

Origin of the recorded values: ChEMBL document CHEMBL1151906
